# experimental protocol: Solubility in water at 20° C. (azelastine and previously known salts)
# Type: physicochemical
Where a name gives a salt, the structure may show the parent alone.
quantity kind: Solubility in water

Guide cases for Solubility in water, answers given:
CN1CCCC(n2nc(Cc3ccc(Cl)cc3)c3ccccc3c2=O)CC1 (stereo not shown) [hydrochloride]
1%
CN1CCCC(n2nc(Cc3ccc(Cl)cc3)c3ccccc3c2=O)CC1 (stereo not shown) [phosphate]
ca. 1%
CN1CCCC(n2nc(Cc3ccc(Cl)cc3)c3ccccc3c2=O)CC1 (stereo not shown) [benzene sulphonate]
under 1%
CN1CCCC(n2nc(Cc3ccc(Cl)cc3)c3ccccc3c2=O)CC1 (stereo not shown) [Azelastine]
0.005%
CN1CCCC(n2nc(Cc3ccc(Cl)cc3)c3ccccc3c2=O)CC1 (stereo not shown) [embonate]
0.0015%

[in] Query: Solubility in water; subject: CN1CCCC(n2nc(Cc3ccc(Cl)cc3)c3ccccc3c2=O)CC1 (stereo not shown) [methane sulphonate]
[out] ca. 1%

[in] Another molecule: CN1CCCC(n2nc(Cc3ccc(Cl)cc3)c3ccccc3c2=O)CC1 (stereo not shown) [maleate]
[out] ca. 1%

[in] Further, for CN1CCCC(n2nc(Cc3ccc(Cl)cc3)c3ccccc3c2=O)CC1 (stereo not shown) [toluene sulphonate] ?
[out] under 1%

[in] What would you report for CN1CCCC(n2nc(Cc3ccc(Cl)cc3)c3ccccc3c2=O)CC1 (stereo not shown) [fumarate] ?
[out] under 1%

[in] Check CN1CCCC(n2nc(Cc3ccc(Cl)cc3)c3ccccc3c2=O)CC1 (stereo not shown) [succinate] too.
[out] ca. 1%

Hello, the source for this data is patent US5086050A, in case you need it.
